- Species: Rattus norvegicus
- Measurement Description: Open TG-GATES - Regimen: Single
- Assay type: toxicity, organism-based, Sprague-Dawley
- Design: regimen Single, gender Male, age 6 weeks
- Condition Notes: in vivo, po, 100 mg/kg, 24 h, tissue Kidney, route gavage, dose level Low
Measured Quantity: KIDNEY_L (g)
Report only the number, with the unit g understood.

Answered cases to consult:
COc1ccc2[nH]c([S+]([O-])Cc3ncc(C)c(OC)c3C)nc2c1 (centres undefined) [OMEPRAZOLE] ... 1
NC(N)=Nc1nc(CSCCC(N)=NS(N)(=O)=O)cs1 [FAMOTIDINE] ... 1
CCOC(=O)CCC(=O)O[C@H]1[C@H](O[C@@H]2[C@@H](C)[C@H](O[C@H]3C[C@@](C)(OC)[C@@H](O)[C@H](C)O3)[C@@H](C)C(=O)O[C@H](CC)[C@@](C)(O)[C@H](O)[C@@H](C)C(=O)[C@H](C)C[C@@]2(C)O)O[C@H](C)C[C@@H]1N(C)C [ERYTHROMYCIN ETHYLSUCCINATE] ... 0.9

// moving on: another record for KIDNEY_L
Q: Fill in KIDNEY_L for record COC1=CC(=O)C[C@@H](C)[C@]12Oc1c(Cl)c(OC)cc(OC)c1C2=O [GRISEOFULVIN]
A: 1

---

- Organism: Rattus norvegicus
- Measurement Description: Open TG-GATES - Regimen: Single
- Type: toxicity, organism-based, Sprague-Dawley
- Parameters: regimen Single, gender Male, age 6 weeks
- Condition Notes: in vivo, po, 30 mg/kg, 6 h, tissue Plasma, route gavage, dose level Middle
Measured Quantity: TC

CN(C)CCN(Cc1cccs1)c1ccccn1 ... 82.6 mg/dL
CC1=C(/C=C/C(C)=C/C=C/C(C)=C/CO)C(C)(C)CCC1 ... 74.6 mg/dL
CN(C)CCCN1c2ccccc2CCc2ccccc21 ... 81.2 mg/dL

Field: next compound
Q: Report measured TC; entry is CN(C)CCCN1c2ccccc2CCc2ccc(Cl)cc21
A: 74.4 mg/dL

---

- Species on record: Rattus norvegicus
- Measurement Description: Open TG-GATES - Regimen: Daily Repeat
- Format: toxicity, organism-based, Sprague-Dawley
- Design: regimen Daily Repeat, gender Male, age 6 weeks
- Condition Notes: in vivo, po, 1000 mg/kg, […], tissue Plasma, route gavage, dose level High, time 14 day
Param threshold (0.07 mg/dL) applies to DBIL; output criterion met when value >= threshold, criterion not met when value < threshold.

CCOC(=O)CCC(=O)O[C@H]1[C@H](O[C@@H]2[C@@H](C)[C@H](O[C@H]3C[C@@](C)(OC)[C@@H](O)[C@H](C)O3)[C@@H](C)C(=O)O[C@H](CC)[C@@](C)(O)[C@H](O)[C@@H](C)C(=O)[C@H](C)C[C@@]2(C)O)O[C@H](C)C[C@@H]1N(C)C [ERYTHROMYCIN ETHYLSUCCINATE] ... criterion not met
CC(C)OC(=O)C(C)(C)Oc1ccc(C(=O)c2ccc(Cl)cc2)cc1 [FENOFIBRATE] ... criterion not met
COC1=CC(=O)C[C@@H](C)[C@]12Oc1c(Cl)c(OC)cc(OC)c1C2=O ... criterion met

Q: Form field: DBIL at least 0.07 mg/dL? Entry: CCOc1ccc(NC(=O)CC(C)O)cc1 (stereo unspecified)
A: criterion not met

Q: Would you say NC(N)=Nc1nc(CSCCC(N)=NS(N)(=O)=O)cs1 shows DBIL at minimum 0.07 mg/dL?
A: criterion met

---

- Species on record: Rattus norvegicus
- Measurement Description: Open TG-GATES - Regimen: Daily Repeat
- Assay type: toxicity, organism-based, Sprague-Dawley
- Parameters: regimen Daily Repeat, gender Male, age 6 weeks
- Condition Notes: in vivo, po, 10 mg/kg, […], tissue Plasma, route gavage, dose level Low, time 14 day
Measured Quantity: LDH (IU/L)
Give just the numeric value; IU/L need not be written.

Please review the following examples before continuing.
CN(C)CCCN1c2ccccc2CCc2ccccc21 ... 62.8
CN(C)CCN(Cc1cccs1)c1ccccn1 ... 177.2
CC1=C(/C=C/C(C)=C/C=C/C(C)=C/CO)C(C)(C)CCC1 ... 181.2

Q: Consider the compound CC(C)OC(=O)C(C)(C)Oc1ccc(C(=O)c2ccc(Cl)cc2)cc1 [FENOFIBRATE] . State its measured LDH.
A: 84

---

# key: entry, value: Plat
- Species on record: Rattus norvegicus
- Measurement Description: Open TG-GATES - Regimen: Daily Repeat
- Assay type: toxicity, organism-based, Sprague-Dawley
- Design: regimen Daily Repeat, gender Male, age 6 weeks
- Condition Notes: in vivo, po, 300 mg/kg, […], tissue Blood, route gavage, dose level Middle, time 14 day
Could you give me the number in x10_4/uL? Just the number is fine.

The examples below pair each entry with its known result.
COc1ccc2[nH]c([S+]([O-])Cc3ncc(C)c(OC)c3C)nc2c1 (stereo not given) ... 128.3
NC(N)=Nc1nc(CSCCC(N)=NS(N)(=O)=O)cs1 ... 120.5
CCOc1ccc(NC(=O)CC(C)O)cc1 (stereo not given) ... 113
CCOC(=O)CCC(=O)O[C@H]1[C@H](O[C@@H]2[C@@H](C)[C@H](O[C@H]3C[C@@](C)(OC)[C@@H](O)[C@H](C)O3)[C@@H](C)C(=O)O[C@H](CC)[C@@](C)(O)[C@H](O)[C@@H](C)C(=O)[C@H](C)C[C@@]2(C)O)O[C@H](C)C[C@@H]1N(C)C [ERYTHROMYCIN ETHYLSUCCINATE] ... 116

Let us examine a further case.
Q: Please list Plat recorded for the compound COC1=CC(=O)C[C@@H](C)[C@]12Oc1c(Cl)c(OC)cc(OC)c1C2=O
A: 115.6

---

- Species: Rattus norvegicus
- Measurement Description: Open TG-GATES - Regimen: Single
- Assay type: toxicity, organism-based, Sprague-Dawley
- Design: regimen Single, gender Male, age 6 weeks
- Condition Notes: in vivo, po, 1000 mg/kg, 24 h, tissue Blood, route gavage, dose level High
Examples of compounds with documented MCH follow.
Numbers only here, please. The scale is pg.

Q: Return reported MCH. Input compound: NC(N)=Nc1nc(CSCCC(N)=NS(N)(=O)=O)cs1
A: 21.8

Q: Identify the reported MCH for the following entry. COC1=CC(=O)C[C@@H](C)[C@]12Oc1c(Cl)c(OC)cc(OC)c1C2=O
A: 21.9

Q: Output measured MCH for this item: CCOC(=O)CCC(=O)O[C@H]1[C@H](O[C@@H]2[C@@H](C)[C@H](O[C@H]3C[C@@](C)(OC)[C@@H](O)[C@H](C)O3)[C@@H](C)C(=O)O[C@H](CC)[C@@](C)(O)[C@H](O)[C@@H](C)C(=O)[C@H](C)C[C@@]2(C)O)O[C@H](C)C[C@@H]1N(C)C [ERYTHROMYCIN ETHYLSUCCINATE]
A: 20.9

Q: Give reported MCH value for COc1ccc2[nH]c([S+]([O-])Cc3ncc(C)c(OC)c3C)nc2c1 (centres undefined)
A: 21

---

- Species: Rattus norvegicus
- Measurement Description: Open TG-GATES - Regimen: Single
- Format: toxicity, organism-based, Sprague-Dawley
- Parameters: regimen Single, gender Male, age 6 weeks
- Condition Notes: in vivo, po, 0 mg/kg, 9 h, tissue Plasma, route gavage, dose level Control
Measured Quantity: DBIL (mg/dL)
Express it in mg/dL; write the number only.

Reference set, count: 6
CCOc1ccc(NC(=O)CC(C)O)cc1 (stereo not drawn) ... 0.018
CC/C(=C(\c1ccccc1)c1ccc(OCCN(C)C)cc1)c1ccccc1 ... 0.012
NNC(=O)c1ccncc1 ... 0.066
COC1=CC(=O)C[C@@H](C)[C@]12Oc1c(Cl)c(OC)cc(OC)c1C2=O ... 0.078
CN1C(=O)CN=C(c2ccccc2)c2cc(Cl)ccc21 ... 0.038
CC1=C(/C=C/C(C)=C/C=C/C(C)=C/CO)C(C)(C)CCC1 ... 0

Q: Look up DBIL of O=C(CCCN1CCC(O)(c2ccc(Cl)cc2)CC1)c1ccc(F)cc1 and report it.
A: 0.024

Q: Please list DBIL recorded for the compound Cc1ccc(C)c(OCCCC(C)(C)C(=O)O)c1
A: 0.02

Q: Fill in DBIL for record CN(C)CCCN1c2ccccc2CCc2ccc(Cl)cc21
A: 0.008

Q: Dear colleague, please send me the reported DBIL for CCCNC(=O)NS(=O)(=O)c1ccc(Cl)cc1 [CHLORPROPAMIDE] when you can.
A: 0.006

---

- Species: Rattus norvegicus
- Measurement Description: Open TG-GATES - Regimen: Single
- Type: toxicity, organism-based, Sprague-Dawley
- Set-up: regimen Single, gender Male, age 6 weeks
- Condition Notes: in vivo, po, 0 mg/kg, 3 h, tissue Plasma, route gavage, dose level Control
Measured Quantity: LDH (IU/L)
Note: unit IU/L is implicit; provide only the numeric part.

Some compounds with known LDH results, for comparison:
COc1cc2c(c(OC)c1OC)-c1ccc(OC)c(=O)cc1[C@@H](NC(C)=O)CC2 [COLCHICINE] ... 88.4
CC1=C(/C=C/C(C)=C/C=C/C(C)=C/CO)C(C)(C)CCC1 [RETINOL] ... 265.2
CCCNC(=O)NS(=O)(=O)c1ccc(Cl)cc1 [CHLORPROPAMIDE] ... 89
CN(C)CCCN1c2ccccc2CCc2ccc(Cl)cc21 [CLOMIPRAMINE] ... 98.4
COc1ccc2[nH]c([S+]([O-])Cc3ncc(C)c(OC)c3C)nc2c1 (centres undefined) [OMEPRAZOLE] ... 171.2

Q: Indicate its recorded LDH; the compound in question is NC(N)=Nc1nc(CSCCC(N)=NS(N)(=O)=O)cs1 [FAMOTIDINE]
A: 196.4

Q: Let me know recorded LDH for COC1=CC(=O)C[C@@H](C)[C@]12Oc1c(Cl)c(OC)cc(OC)c1C2=O [GRISEOFULVIN] , thanks.
A: 129.8

Q: Output LDH of CC/C(=C(\c1ccccc1)c1ccc(OCCN(C)C)cc1)c1ccccc1 [TAMOXIFEN]
A: 69.6

Q: Give LDH for NNC(=O)c1ccncc1 [ISONIAZID]
A: 160
